Tested on: SK-MEL-5 melanoma
Test: NCI tumour cell line growth inhibition, 48 h
endpoint_name: TGI

Here's what some known entries look like.
compound	measured
COc1ccc(C[C@H]2COC(=O)[C@@H]2Cc2ccccc2)cc1OC	> 100 µM
C=C(C)C(=O)O[C@H]1CC2(CO)O[C@@H]2CC/C(COC(C)=O)=C/C2OC(=O)C(=C)[C@@H]21 (stereo partly drawn)	> 100 µM
OCC1c2ccccc2-n2nc(-c3ccccc3)c(O)c21 (stereo not drawn)	> 100 µM
O=C(O)C(=Cc1ccnc2ccccc12)C(=O)O	> 100 µM
Cn1c(O)c(/C=N/c2ncccn2)c(=O)[nH]c1=O	> 100 µM

Challenge: Entry under review: `N[C@@H](Cc1c[nH]c2ccccc12)C(=O)NC1CCN(C(=O)c2c[nH]c3ccccc23)CC1` . Reported TGI?
Response given: > 100 µM

Challenge: What do you get for `O=C(c1ccccc1)c1ccc2nc(-c3c(Cl)c(Cl)c(Cl)c(Cl)c3C(=O)Nc3ccco3)[nH]c2c1` ?
Response given: > 100 µM

Challenge: What do you get for CC(O)/C=C/C(CCC(C)CO)C(C)C (stereo not drawn) ?
Response given: > 100 µM

Challenge: What do you get for `O=C(O)c1cc(Nc2c(O)c3c(c(O)c2Cl)C(=O)C=CC3=O)ccc1O` ?
Response given: > 10 µM

Challenge: What do you get for O=P1(N(CCCl)CCCl)NCCCO1 (stereo not drawn) ?
Response given: > 250 µM

Challenge: What do you get for `C/C(=C\COP(=O)(O)OP(=O)(O)O)CC/C=C(\C)CNc1ccccc1` ?
Response given: > 50 µM

Challenge: What do you get for `O=c1cc(C(F)(F)F)c2cc3c(cc2o1)NCCC3` ?
Response given: > 100 µM

Challenge: What do you get for `NNc1nnc(-c2ccccc2)nc1Cc1ccccc1` ?
Response given: > 100 µM

###

Attribute: TGI
Test system: MDA-MB-231 breast
Assay: NCI tumour cell line growth inhibition, 48 h

Here's what some known entries look like.
compound	TGI
Oc1ccc(Cc2ccc(O)c3ncccc23)c2cccnc12	> 100 µM
Cc1ccc2c(c1)nc(C(=O)c1ccco1)c(C(F)(F)F)[n+]2[O-]	> 100 µM

Challenge: Entry under review: OCC1c2ccccc2-n2nc(-c3ccccc3)c(O)c21 (stereo not drawn) . Reported TGI?
Response given: > 100 µM

###

System: 786-0 renal
Experiment: NCI tumour cell line growth inhibition, 48 h
endpoint_name: TGI

molecule	target_or_system	TGI
O=C1CCc2cc3c(cc21)C(C(=O)O)CC3 (stereo not drawn)	786-0 renal	> 100 µM
Cc1ccc(Cl)c2c(=O)cc(-c3ccccc3)[nH]c12	786-0 renal	> 100 µM
CCCN(CCCCC(NC(C)=O)C(=O)NCc1ccccc1)C(=O)NCCCl (stereo not drawn)	786-0 renal	> 100 µM
COC(=O)C1=C(C)N(NC(N)=O)C2(N)N(NC(N)=O)C(C)=C(C(=O)OC)C12C(=O)OC (stereo not drawn)	786-0 renal	> 100 µM
CCOC(=O)c1nc2ccccc2nc1Nc1ccc(F)cc1	786-0 renal	> 72.2 µM
Cc1cn(C2CC(SCCO)C(CO)O2)c(=O)[nH]c1=O (stereo not drawn)	786-0 renal	> 100 µM

Challenge: Entry under review: `O=C(/C=C/c1ccc(OCC(=O)N2CCN(c3ccccc3)CC2)cc1)c1ccc(Cl)cc1` . Reported TGI?
Response given: 73.7 µM

Challenge: What do you get for `O=C(c1ccccc1)c1ccc2nc(-c3c(Cl)c(Cl)c(Cl)c(Cl)c3C(=O)Nc3ccco3)[nH]c2c1` ?
Response given: > 100 µM

Challenge: What do you get for `CN(C)CCCn1c2c(c3cnccc3c1=O)C(=O)c1ccccc1-2` ?
Response given: 13.6 µM

Challenge: What do you get for CC(CN(CP(=O)([O-])[O-])CP(=O)([O-])[O-])N(CP(=O)([O-])[O-])CP(=O)([O-])[O-].N.N.[Pt+2] (stereo not drawn) ?
Response given: > 100 µM

Challenge: What do you get for O=P1(N(CCCl)CCCl)NCCCO1 (stereo not drawn) ?
Response given: > 250 µM

Challenge: What do you get for Cc1ccc(C2(N3CCOCC3)OC(C)(C)c3cccc4cccc2c34)cc1 (stereo not drawn) ?
Response given: 32.4 µM

Challenge: What do you get for `Cc1ccc(C(=O)Nc2ccc(CN3CCN(C)CC3)c(C(F)(F)F)c2)cc1C#Cc1cnc(N)cc1C#N` ?
Response given: 0.826 µM

Challenge: What do you get for `CC(C)Oc1cc2c(cc1O)CC[C@@H]1[C@@H]2CC[C@]2(C)[C@@H](O)CC[C@@H]12` ?
Response given: 36.1 µM

Challenge: What do you get for C[C@]12CCC3[C@@H](C[C@@H]4SC(Nc5ccccc5)=N[C@@]45CC(=O)CC[C@]35C)[C@@H]1CCC2=O (stereo partly drawn) ?
Response given: 13.1 µM

###

Tested on: MDA-MB-231 breast
Test: NCI tumour cell line growth inhibition, 48 h
Attribute: GI50

Here's what some known entries look like.
compound	endpoint_name	measured
C[C@]12CCC3[C@@H](C[C@@H]4SC(Nc5ccccc5)=N[C@@]45CC(=O)CC[C@]35C)[C@@H]1CCC2=O (some centres undefined)	GI50	13.4 µM
CC(=O)OC[C@H]1O[C@@H](n2ccc(=O)[nH]c2=O)[C@H](OC(C)=O)[C@@H]1OC(C)=O	GI50	> 100 µM
CC1=C([Se]CC(OC(=O)CC[Se]c2ccccc2)C(=O)NCCCCCC(=O)OCc2ccccc2)C(=O)c2ccccc2C1=O (centres undefined)	GI50	1.95 µM

Now consider the entry below.
Challenge: Entry under review: `C=C1C(=O)O[C@H]2[C@H]1CC/C(COC(=O)NCc1cc3ccccc3[nH]1)=C\CC[C@@]1(C)O[C@@H]21` . Reported GI50?
Response given: 1.65 µM

###

Tested on: SNB-75 CNS
Assay: NCI tumour cell line growth inhibition, 48 h
endpoint_name: TGI

Here's what some known entries look like.
compound	TGI
CC(=O)O[C@H]1C(=O)[C@@]2(C)C(C(OC(=O)c3ccccc3)[C@]3(O)CC(OC(=O)[C@H](OC(=O)CCC(=O)O)C(NC(=O)c4ccccc4)c4ccccc4)C(C)=C1C3(C)C)C1(OC(C)=O)COC1C[C@@H]2OC(=O)CCC(=O)O (stereo not given in full)	> 26.8 µM
C=C(C)[C@@H]1CC[C@]2(C(=O)OC3OC(COC4OC(CO)C(OC5OC(C)C(O)C(O)C5O)C(O)C4O)C(O)C(O)C3O)CC[C@]3(C)[C@H](CC[C@@H]4[C@@]5(C)CC[C@H](O)[C@@](C)(CO)[C@@H]5CC[C@]43C)[C@@H]12 (stereo not given in full)	> 10 µM
O=C1CCc2cc3c(cc21)C(C(=O)O)CC3 (stereo not given)	> 100 µM
CC(=O)OCC1(CNc2nc(N)ncc2C#N)CC(CCc2ccccc2)C1 (stereo not given)	> 100 µM

Now consider the entry below.
Challenge: Entry under review: `Cn1cnc(/C=C/C#N)c1` . Reported TGI?
Response given: > 100 µM

###

Test system: HOP-92 NSCLC
Test: NCI tumour cell line growth inhibition, 48 h
endpoint_name: TGI

Here's what some known entries look like.
compound	TGI
CC(C)(C)N1CCC1C(N)=O (stereo not drawn)	> 100 µM
Cc1cn([C@@H]2C[C@](C)(CO)N(C)O2)c(=O)[nH]c1=O	> 100 µM

Now consider the entry below.
Challenge: Entry under review: Cc1ccc(C2(N3CCOCC3)OC(C)(C)c3cccc4cccc2c34)cc1 (stereo not drawn) . Reported TGI?
Response given: 25.5 µM

###

Tested on: OVCAR-5 ovarian
Assay: NCI tumour cell line growth inhibition, 48 h
Attribute: TGI
State the answer as a number, implicitly in µM.

Challenge: Entry under review: `C1CC[N-]CC1.C1CC[N-]CC1.C1CC[N-]CC1.C1CC[N-]CC1.[Cl][Rh][Cl]` . Reported TGI?
Response given: 49.8

Challenge: What do you get for `CC(C)Oc1cc2c(cc1O)CC[C@@H]1[C@@H]2CC[C@]2(C)[C@@H](O)CC[C@@H]12` ?
Response given: 60.7

###

Test system: ACHN renal
Assay: NCI tumour cell line growth inhibition, 48 h
Attribute: TGI

Here's what some known entries look like.
structure_smiles	endpoint_name	measured
Cn1c(=O)[nH]n(-c2ccc3ccccc3c2)c1=O	TGI	> 100 µM
COc1ccc(OC)c(-c2cn3c(n2)sc2ccccc23)c1	TGI	> 100 µM

Now consider the entry below.
Challenge: Entry under review: `N#Cc1c(C(=O)c2ccccc2)cnn1-c1ccccc1` . Reported TGI?
Response given: > 25 µM

###

Tested on: TK-10 renal
Assay: NCI tumour cell line growth inhibition, 48 h
endpoint_name: TGI

Challenge: Entry under review: `O=C1NC(=S)N/C1=C\c1ccc(Sc2ccccc2C(=O)O)s1` . Reported TGI?
Response given: > 100 µM

Challenge: What do you get for `CC(=O)Nc1nc(C)c(S(=O)(=O)NC(=O)N2c3ccccc3CCc3ccccc32)s1` ?
Response given: > 100 µM

Challenge: What do you get for `Clc1ccc(Cl)c2[s+]snc12` ?
Response given: > 100 µM

Challenge: What do you get for `O=[N+]([O-])c1cccc([N+](=O)[O-])c1Cl` ?
Response given: 41.3 µM

Challenge: What do you get for CSc1nc(NC2OCC(OC(C)=O)C(OC(C)=O)C2OC(C)=O)c2c(OC(C)=O)c(C)c(=O)oc2n1 (stereo not given) ?
Response given: > 100 µM

Challenge: What do you get for `O=C(O)C(=Cc1ccnc2ccccc12)C(=O)O` ?
Response given: > 100 µM

Challenge: What do you get for CCn1c(O)c(C(=O)NC(C)c2ccc([N+](=O)[O-])cc2)c(=O)n(CC)c1=S (stereo not given) ?
Response given: 17 µM

Challenge: What do you get for `O=c1cnc2cc3ccccc3cc2[nH]1` ?
Response given: > 100 µM

Challenge: What do you get for `COc1ccc2c3c([nH]c2c1)-c1nc2ccccc2c(=O)n1CC3` ?
Response given: > 25 µM

Challenge: What do you get for `CCN(CC)c1ccc(/C=C\c2cc(C)c3cc(C)ccc3n2)cc1` ?
Response given: 36.7 µM
